Tested on: Salmonella typhi
Assay Notes: Antimicrobial activity against Salmonella enterica subsp. enterica serovar Typhi after 24 hr by agar diffusion method
Format: functional
Activity calls are given as the source filed them. The calls are words filed in the database; no cut-off is given here.
Property Measured: inhibition zone (IZ)

structure_as_smiles=Cc1nc(N/N=C\c2cn(-c3ccccc3)nc2-c2cccs2)sc1/N=N/c1ccc(F)cc1 system_under_test="Salmonella typhi" recorded_value=inactive
structure_as_smiles=O=c1oc2ccccc2cc1-c1csc(N/N=C\c2cn(-c3ccccc3)nc2-c2cccs2)n1 system_under_test="Salmonella typhi" recorded_value=inactive
structure_as_smiles=O=C1CS/C(=N\N=C/c2cn(-c3ccccc3)nc2-c2cccs2)N1 system_under_test="Salmonella typhi" recorded_value=inactive
